Where do the numbers come from? From the kinase profiling compilation of Christmann-Franck et al. (2016).

Recorded kinase still bound, per cent of control by entry
# Assayed system: CDK11B (human) (UniProt P21127)
# Sequence (P21127 whole entry, looked up): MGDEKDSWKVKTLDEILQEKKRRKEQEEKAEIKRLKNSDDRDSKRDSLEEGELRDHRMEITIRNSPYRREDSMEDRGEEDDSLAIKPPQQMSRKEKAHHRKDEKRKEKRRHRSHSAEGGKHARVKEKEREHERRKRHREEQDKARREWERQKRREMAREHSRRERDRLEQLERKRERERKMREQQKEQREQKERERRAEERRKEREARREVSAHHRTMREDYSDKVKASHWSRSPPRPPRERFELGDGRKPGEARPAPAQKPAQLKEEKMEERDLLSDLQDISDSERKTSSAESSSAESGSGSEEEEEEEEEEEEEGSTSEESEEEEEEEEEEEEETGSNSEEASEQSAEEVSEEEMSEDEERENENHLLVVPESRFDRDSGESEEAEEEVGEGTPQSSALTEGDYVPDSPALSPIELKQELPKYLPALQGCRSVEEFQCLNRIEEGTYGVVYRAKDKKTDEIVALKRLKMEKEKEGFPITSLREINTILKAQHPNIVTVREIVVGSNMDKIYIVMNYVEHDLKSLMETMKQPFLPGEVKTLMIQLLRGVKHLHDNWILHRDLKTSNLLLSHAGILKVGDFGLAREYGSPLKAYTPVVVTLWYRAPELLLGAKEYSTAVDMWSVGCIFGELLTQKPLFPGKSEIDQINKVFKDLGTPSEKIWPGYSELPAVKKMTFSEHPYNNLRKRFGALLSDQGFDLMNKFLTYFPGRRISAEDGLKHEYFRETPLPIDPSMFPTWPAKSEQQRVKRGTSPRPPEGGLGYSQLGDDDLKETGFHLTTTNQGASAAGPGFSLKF
# Procedure text: KINOMEscan competition binding
# Cond: compound 10.0 µM
Return type: number; implicit unit %.

Worked examples, 2 compounds total:
- N#Cc1cc(-c2ccnc(Nc3ccc(-n4cnc(-c5cccnc5)n4)cc3)n2)cc(N2CCOCC2)c1: 32
- COc1cc2ncnc(Nc3cccc(Cl)c3)c2cc1OC: 86

Recall and state the measured kinase still bound, per cent of control for CNC(=O)Nc1ccc(-c2nc(N3CC4CCC(C3)O4)c3cnn(C4CCC5(CC4)OCCO5)c3n2)cc1 .
100

Recall and state the measured kinase still bound, per cent of control for CCCS(=O)(=O)Nc1ccc(F)c(C(=O)c2c[nH]c3ncc(Cl)cc23)c1F .
99
